The entries below are paired with their reported reverse-splicing fitness.
B1: Azoarcus group I ribozyme (parent)
chain: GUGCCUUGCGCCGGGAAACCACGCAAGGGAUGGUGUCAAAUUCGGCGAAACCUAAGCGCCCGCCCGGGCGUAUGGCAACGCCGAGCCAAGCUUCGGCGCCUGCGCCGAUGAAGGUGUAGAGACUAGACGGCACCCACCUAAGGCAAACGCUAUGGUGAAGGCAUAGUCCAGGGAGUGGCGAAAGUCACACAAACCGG

Variants of: B1
Method summary: reverse-splicing fitness (ratio to wild type); higher = more active; in vitro selection; Mg2+ level not given
Respond numerically, and do not add a unit to the figure.

Variant designation: C82G A111C A120U C150U C169A U176C
reverse-splicing fitness: 0.00319

Variant designation: C82A A111C A120U A145G C150U U176A
reverse-splicing fitness: 0.00986

Variant designation: A120U A145C C150A U176A
reverse-splicing fitness: 0.0864

Variant designation: A111U A120U
reverse-splicing fitness: 0.634

Variant designation: A145G C169A U176G
reverse-splicing fitness: 0.00541

Variant designation: C82U A111U A120U C169U
reverse-splicing fitness: 0.00477

Variant designation: A111U A120U C150G C169A U176A
reverse-splicing fitness: 0.00451

Variant designation: A111G A145C C169A U176G
reverse-splicing fitness: 0.00444

For this variant ( C82A A111C A120U A145U C150A C169A U176C ), measured reverse-splicing fitness is 0.00334

For this variant ( C82G A111C A120G A145G C169U U176A ), measured reverse-splicing fitness is 0.0161

For this variant ( C82G A111C A120G A145C C169U U176C ), measured reverse-splicing fitness is 0.0154

// provenance: the RNAGym collection of RNA variant scans (doi:10.1093/molbev/msab373)
